Data provenance: the Human Domainome abundance scans (Beltran et al. 2025)

Readings of abundance fitness for the listed variants
B1: Intersectin-2, residues 1129 to 1183; numbered along this chain, Q9NZM3 (parent)
chain: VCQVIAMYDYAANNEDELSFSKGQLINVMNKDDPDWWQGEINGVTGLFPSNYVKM

- Variants of: B1
- measurementNotes: abundance fitness (aPCA) (normalised: wild type 0, dead -1); higher = more abundant; growth selection in yeast, the domain comes from the species named
- assayContext: Homo sapiens
// print number alone

Solved entries:
seq: VCQVIAMYDYAATNEDELSFSKGQLINVMNKDDPDWWQGEINGVTGLFPSNYVKM [N13T]
abundance fitness: 0.011
//
seq: VCQVIAMYDYAANNEDELSFSKGQLINCMNKDDPDWWQGEINGVTGLFPSNYVKM [V28C]
abundance fitness: -0.077
//
seq: VCQVIAMYDYAANNEDELSFSKGQNINVMNKDDPDWWQGEINGVTGLFPSNYVKM [L25N]
abundance fitness: -0.054
//
seq: VGQVIAMYDYAANNEDELSFSKGQLINVMNKDDPDWWQGEINGVTGLFPSNYVKM [C2G]
abundance fitness: -0.099
//
seq: VCQVIAMYDYAANNEDELSRSKGQLINVMNKDDPDWWQGEINGVTGLFPSNYVKM [F20R]
abundance fitness: -0.98
//
seq: VCQVIAMYDYAANNEDELSFSKGQLINVMNKDDPDWWDGEINGVTGLFPSNYVKM [Q38D]
abundance fitness: -0.024
//
seq: VCQVIAMYDYAANNEDELSFSKGQLINVMNKDDPRWWQGEINGVTGLFPSNYVKM [D35R]
abundance fitness: -0.021
//
seq: VCQVIAMYDYAANNEDELSFSKGQLINVMNKDDPDWWQGEINGVTGKFPSNYVKM [L47K]
abundance fitness: 0.039
//
seq: VCQVIAMYDYAANNEDELSFEKGQLINVMNKDDPDWWQGEINGVTGLFPSNYVKM [S21E]
abundance fitness: -0.084
//
seq: VCQVIAMYDYAANNEDELSFSCGQLINVMNKDDPDWWQGEINGVTGLFPSNYVKM [K22C]
abundance fitness: -0.061

**Query** Give the value of abundance fitness reported for the following: VCQVIAMYDYAANNEDELSFSKGQLINVMNKDDGDWWQGEINGVTGLFPSNYVKM [P34G]
**Result** -0.028

**Query** Look up abundance fitness of VCQVIAMYDYAANNEDELSFSKGQLINVMNKDDNDWWQGEINGVTGLFPSNYVKM [P34N] and report it.
**Result** 0.036

**Query** State, in one line, measured abundance fitness of VCQVIAMYDYAANNEDELSFSKGQLINVMNKDDPDWWQGEINGVTGLFPINYVKM [S50I]
**Result** -0.084

**Query** Please look at this variant and report its abundance fitness: VCQVLAMYDYAANNEDELSFSKGQLINVMNKDDPDWWQGEINGVTGLFPSNYVKM [I5L]
**Result** -0.132

**Query** Please indicate abundance fitness recorded for VCQVIAMYDYAANNEDELSFVKGQLINVMNKDDPDWWQGEINGVTGLFPSNYVKM [S21V]
**Result** -0.032

**Query** Let me know recorded abundance fitness for VCQVIAMYDYACNNEDELSFSKGQLINVMNKDDPDWWQGEINGVTGLFPSNYVKM [A12C] , thanks.
**Result** -0.115

**Query** Tell me abundance fitness reported for VCQVIAMYDYAANNEDELSFSKGQLINVMNKDDPDWWQGEINGVTGLFPSHYVKM [N51H]
**Result** -0.025

**Query** For the variant VCQVIAMYDYAANNEDELSFSKGQLINVMNKDDPDWWQGEINGVKGLFPSNYVKM [T45K] , give its measured abundance fitness value.
**Result** -0.03

**Query** Specify abundance fitness for VCQVIAMYDYAANNEDELSFSKGQLINVMNKDDPDWWQGEINGVTGLFPSNYVTM [K54T] and stop.
**Result** 0.014

**Query** Provide only the value of recorded abundance fitness for VCQVIAMYDYAANNEDELSFSKGQLINVMNKDDPDWWMGEINGVTGLFPSNYVKM [Q38M]
**Result** -0.074

**Query** Tell me abundance fitness reported for VCQVIAMYDYAANNEDELSFSKGQLINVMNCDDPDWWQGEINGVTGLFPSNYVKM [K31C]
**Result** 0.138

**Query** Retrieve abundance fitness measured for VCQVIAMYDYAANNEDELSFSKGQLINVMNKDDPDWWCGEINGVTGLFPSNYVKM [Q38C] and print it.
**Result** -0.027

**Query** Hello, please tell me recorded abundance fitness for this one: VCQVIAMYDYAANNEDELSFSKGQLINVMLKDDPDWWQGEINGVTGLFPSNYVKM [N30L]
**Result** -0.021

**Query** For VCQVIAMYDYAANNEDELSHSKGQLINVMNKDDPDWWQGEINGVTGLFPSNYVKM [F20H] , write its abundance fitness.
**Result** -0.988

**Query** Fill in abundance fitness for record VCQVIAMYDYAANNEDELSFSKGQLINVMNKDDPDWWQGEINGVTGLFPSNYVWM [K54W]
**Result** -0.388

**Query** Specify measured abundance fitness for VCQVIAMYDYAANNEDELSFSKGQLINVMNKDLPDWWQGEINGVTGLFPSNYVKM [D33L] .
**Result** -0.077

**Query** Indicate its recorded abundance fitness; the variant in question is VCQVIAMYDYAANNEDELSFSKGQLHNVMNKDDPDWWQGEINGVTGLFPSNYVKM [I26H]
**Result** -1.07

**Query** Tell me measured abundance fitness for VCQVIAMYHYAANNEDELSFSKGQLINVMNKDDPDWWQGEINGVTGLFPSNYVKM [D9H] please.
**Result** -0.025
